The measurements presented in this section are drawn from patent US20220298257A1.

- Target Under Test: T1, human CD22-Fc fusion protein (human, UniProt P20273 20-687, limits assumed)
- T1 construct: also called recombinant CD22-Fc fusion protein; not shown: Fc part
- T1 sequence (looked up): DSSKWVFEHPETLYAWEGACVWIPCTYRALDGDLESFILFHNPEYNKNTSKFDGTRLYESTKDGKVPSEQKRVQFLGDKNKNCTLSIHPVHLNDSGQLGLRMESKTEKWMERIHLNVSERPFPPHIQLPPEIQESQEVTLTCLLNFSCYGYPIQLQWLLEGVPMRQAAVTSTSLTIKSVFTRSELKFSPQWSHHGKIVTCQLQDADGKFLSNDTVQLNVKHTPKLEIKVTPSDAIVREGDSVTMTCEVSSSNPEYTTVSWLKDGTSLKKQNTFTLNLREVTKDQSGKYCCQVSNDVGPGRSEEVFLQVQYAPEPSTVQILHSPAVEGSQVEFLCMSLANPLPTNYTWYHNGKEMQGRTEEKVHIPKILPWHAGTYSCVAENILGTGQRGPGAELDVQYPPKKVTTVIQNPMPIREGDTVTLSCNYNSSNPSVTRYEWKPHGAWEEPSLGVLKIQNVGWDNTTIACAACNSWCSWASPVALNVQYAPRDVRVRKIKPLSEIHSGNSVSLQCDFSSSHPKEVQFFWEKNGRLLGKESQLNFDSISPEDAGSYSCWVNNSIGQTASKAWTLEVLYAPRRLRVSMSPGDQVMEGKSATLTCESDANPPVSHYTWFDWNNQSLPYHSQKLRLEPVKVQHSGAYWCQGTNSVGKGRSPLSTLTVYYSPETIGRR
- Experiment: SPR Biacore T200; CD22-Fc captured on Protein G chip, scFv as analyte;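 further: run in 1×HBST buffer, with the response of reference flow cell 1 subtracted from the CD22 capture cell and kinetics fitted in Biacore T200 evaluation software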
Measured Quantity: Kd (nM)
Numbers only, in nM.

Example binders with recorded Kd:
[[record]]
binder = "EP97-A01 scFv (scFv, VH-VL orientation; not shown: C-terminal flag and 6xHIS tag) scFv: EVQLVQSGGGVVQPGRSLKLSCAASGFTFSSYGMHWVRQAPGKGLEWVAVIWYDGSNKYYADSVKGRFTISRDNSKNTLYLQMNSLRAEDTAVYYCARDGWKGFDYWGQGTTVTVSSGGGGSGGGGSGGGGSEIVLTQSPATLSVSPGEGVTLSCRASQSVSSNLAWYQQRPGQAPRLLIYGASIKATDVPDRFSGGGSGTDFTLSISNLQSEDFAVYYCQQYHTWPPVTFGGGTKVEIK"
recorded_measurement = 14.2

[[record]]
binder = "EP97-B03 scFv (scFv, VH-VL orientation; not shown: C-terminal flag and 6xHIS tag) scFv: QLVQSGAEVKKPGASVKVSCKASGYTFSSYGITWVRQAPGQGLEWMGWISAYNGNTNYAQKFQGRVTLTTDTSTSIAYMELRSLTSDDTAVYYCATGGQEDYWGQGTLVTVSSGGGGSGGGGSGGGGSEIVLTQSPATLSVSPGERATLSCRASQSVSSNLAWYQQKPGQAPRLLIYGASTRATGIPARFSGSGSGTEFTLTISSLQSEDFAVYYCQQYNSWPPLTFGGGTKVEIK"
recorded_measurement = 0.846


Lab note: each binder below needs its Kd filled in.
1. EP97-A10 scFv (scFv, VH-VL orientation; not shown: C-terminal flag and 6xHIS tag) scFv: QVQLVQSGAEVKRPGASVKVSCKASGYTFTSYGISWVRQAPGQGLEWMGWISAYNGNTNYAQKLQGRVTMTTDTSTSTAYMELRSLRSDDTAVYYCARDPGIAVAGTVDYWGQGTLVTVSSGGGGSGGGGSGGGGSEIVMTQSPATLSVSPGEGVTLSCRASQSVSSNLAWYQQRPGQAPRLLIYGASIKATDVPDRFSGGGSGTDFTLSISNVQSEDFAVYYCQQYHTWTPVTFGGGTKVEIK
2. EP160-E03 scFv (scFv, VH-VL orientation; not shown: C-terminal flag and 6xHIS tag) scFv: EVQLVQSGGGVVQPGKSLRLSCAASGFTFSSYGMHWVRQAPGKGLEWVAVIWYDGSNKYYADSVKGRFTISRDNSKNTLYLQMNSLRAEDTAVYYCARDGWTGFDYWGQGTTVTVSSGGGGSGGGGSGGGGSEIVLTQSPATLSVSPGEGVTLSCRASQSVSSNLAWYQQRPGQAPRLLIYGASIKATDVPDRFSGGGSGTDFTLSISNLQSEDFAVYYCQQYHTWPPVTFGGGTKVEIK
3. EP160-H02 scFv (scFv, VH-VL orientation; not shown: C-terminal flag and 6xHIS tag) scFv: QVQLVQSGAEVKKPGASVKVSCKASGYTFTSYGISWVRQAPGQGLEWMGGIIAYNGNTNYAQKLQGRVTMTTDTSTSTAYMELRSLRSDDTAVYYCARDPPEYSSSAGTDYWGQGTLVTVSSGGGGSGGGGSGGGGSEIVMTQSPATLSVSPGEGVTLSCRASQSVSSNLAWYQQRPGQAPRLLIYGASIKATDVPDRFSGGGSGTDFTLSITNLQSEDFAVYYCQQYHTWSPVTFGGGTKVEIK

Response given:
1: 3.57; 2: 5.52; 3: 1.84
